Values from patent US4443436A

We begin with a simple list: items and their reported MIC.
- System: Mycoplasma gallisepticum
- TEST_SUMMARY: MIC, broth-dilution microtiter test, Mycoplasma gallisepticum
- Format: cell-based
- ASSAY_CONDITIONS: Mycoplasma gallisepticum; broth-dilution microtiter
Hi! Could you send only the number? It should be in µg/mL, unit omitted.

MOLECULE	SYSTEM_NAME	MIC, µg/mL
CCC1OC(=O)CC(O)C(C)C(OC2OC(C)C(O)C(N(C)C)C2O)C(CCOc2cccnc2)CC(C)C(=O)C=CC(C)=CC1COC1OC(C)C(O)C(OC)C1OC (centres unmarked) [Compound 49, 20-DH-20-O-(Pyridin-3-yl)desmycosin]	Mycoplasma gallisepticum	0.78
CC[C@H]1OC(=O)C[C@@H](O)[C@H](C)[C@@H](O[C@@H]2O[C@H](C)[C@H](O)[C@H](N(C)C)[C@H]2O)[C@@H](CCOc2ccccc2)C[C@@H](C)C(=O)/C=C/C(C)=C/[C@@H]1COC1O[C@H](C)[C@@H](O)[C@@H](OC)[C@H]1OC (some centres unmarked) [Compound 33, 20-DH-20-O-Phenyldesmycosin]	Mycoplasma gallisepticum	0.39

Query :: Field: MIC (Mycoplasma gallisepticum). Entry: CCC1OC(=O)CC(O)C(C)C(OC2OC(C)C(OC(C)=O)C(N(C)C)C2OC(C)=O)C(CCOc2ccccc2)CC(C)C(=O)C=CC(C)=CC1COC1OC(C)C(O)C(OC)C1OC (centres unmarked) [Compound 68]
Result :: 0.39

Query :: How about this molecule: CCC(=O)OC1C(OC2C(CCCl)CC(C)C(=O)C=CC(C)=CC(COC3OC(C)C(O)C(OC)C3OC)C(CC)OC(=O)CC(O)C2C)OC(C)C(OC2CC(C)(O)C(O)C(C)O2)C1N(C)C (centres unmarked) [Compound 63, 20-DH-DO-20-Chloro-2'-O-propionyltylosin]
Result :: 1.56

Query :: How about this molecule: CCC(=O)OC1C(OC2C(CCN3C(=O)c4ccccc4C3=O)CC(C)C(=O)C=CC(C)=CC(COC3OC(C)C(O)C(OC)C3OC)C(CC)OC(=O)CC(O)C2C)OC(C)C(OC2CC(C)(O)C(O)C(C)O2)C1N(C)C (centres unmarked) [Compound 62]
Result :: 1.56
